meta.source: paper PMC9482650

- Target Entity: MAGI2_5, Q86UL8
- Sequence (Q86UL8 915-1017): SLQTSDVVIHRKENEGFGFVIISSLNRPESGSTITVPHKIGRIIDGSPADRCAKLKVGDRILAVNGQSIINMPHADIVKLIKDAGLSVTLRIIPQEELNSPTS
- Measurement Description: holdup assay
- Set-up: key: below the threshold = too weak to quantify, mostly under pKd 3.1 to 4
- Test Context: plain residues with an end cap or a label only (N-terminal biotin on a linker: ado-ado)

[
  {
    "Binder": "FHSIKQSTAV [CRHR1, P34998]",
    "pKd": 4.38
  },
  {
    "Binder": "VCMGDHWFDV [PRKN, O60260]",
    "pKd": "below the threshold"
  },
  {
    "Binder": "KSRPENGTVC [TMEM178B, H3BS89]",
    "pKd": "below the threshold"
  },
  {
    "Binder": "KPDKQEEFYA [SDC3, O75056]",
    "pKd": "below the threshold"
  }
]
